Listing of recorded peptide exchange yield by entry.
target.system: T1, HLA-A*02:01 (peptide-receptive MHC class I molecule of the UV-ligand exchange assay) (human)
T1 construct: MHC monomer first loaded with a UV-sensitive peptide (not identified) that is cleaved by UV light and exchanged for the test peptide; captured on streptavidin plates
protocol: UV-ligand exchange, anti-b2m ELISA; peptide exchange yield grade (>=10% = +; >=20% = ++; >=50 = +++; >=75% = ++++)
measurement.name: peptide exchange yield

| binder | experimental.result |
| --- | --- |
| GAIDLLHNV (synthetic peptide; source gene GBP5) [GAIDLLHNV (SEQ ID NO: 55)] | 20 to 50% |
| YMLDIFHEV (synthetic peptide; source gene HAS3) [YMLDIFHEV (SEQ ID NO: 32)] | 20 to 50% |
| AVLPHVDQV (synthetic peptide; source gene KIAA0947) [AVLPHVDQV (SEQ ID NO: 81)] | 50 to 75% |
| GLAFSLYQA (synthetic peptide; source gene SERPINH1) [GLAFSLYQA (SEQ ID NO: 40)] | 20 to 50% |
| SMHQMLDQTL (synthetic peptide; source gene TPM1) [SMHQMLDQTL (SEQ ID NO: 48)] | 20 to 50% |
| GLAPNTPGKA (synthetic peptide; source gene PRC1) [GLAPNTPGKA (SEQ ID NO: 57)] | 50 to 75% |
| ALVEVTEHV (synthetic peptide; source gene TMEM132A) [ALVEVTEHV (SEQ ID NO: 56)] | 20 to 50% |
| SILRHVAEV (synthetic peptide; source gene EIF2S1) [SILRHVAEV (SEQ ID NO: 92)] | 20 to 50% |
